List of IC50 values.
target: Mitochondrial complex I; NADH oxidoreductase (Bos taurus, UniProt P25708+P52505); assay: Inhibition of NADH oxidase activity.
Sequence (P25708 21-464 limits assumed, other chains not shown): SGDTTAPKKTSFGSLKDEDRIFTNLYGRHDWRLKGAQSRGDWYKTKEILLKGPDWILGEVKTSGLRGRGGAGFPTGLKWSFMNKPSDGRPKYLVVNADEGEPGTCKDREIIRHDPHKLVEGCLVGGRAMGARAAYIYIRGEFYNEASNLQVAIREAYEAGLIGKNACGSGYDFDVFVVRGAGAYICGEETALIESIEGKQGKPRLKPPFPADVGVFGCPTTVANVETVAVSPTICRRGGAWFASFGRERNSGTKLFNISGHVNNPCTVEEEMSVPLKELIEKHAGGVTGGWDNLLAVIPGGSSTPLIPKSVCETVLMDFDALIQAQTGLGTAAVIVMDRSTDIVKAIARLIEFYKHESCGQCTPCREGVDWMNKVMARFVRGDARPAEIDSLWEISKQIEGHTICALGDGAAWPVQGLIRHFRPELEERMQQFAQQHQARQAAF
EXPERIMENTAL_READOUT: IC50 (nM)

MOLECULE	VALUE
CCCCCCCCCCC(=O)[C@H]1CC[C@H]([C@H]2CC[C@H](C(=O)CCCCC(=O)CCCCCCCC3=C[C@H](C)OC3=O)O2)O1	1.65
CCCCCC[C@@H](CCC[C@H](OS(C)(=O)=O)[C@H]1CC[C@H]([C@H]2CC[C@H]([C@@H](CCCCCCCCCCCCC3=C[C@H](C)OC3=O)OS(C)(=O)=O)O2)O1)OS(C)(=O)=O	14.1
CCCCCCCCCC[C@H](O)[C@H]1CC[C@H]([C@H]2CC[C@H]([C@H](O)CCCCC(O)CCCCCCCC3=C[C@H](C)OC3=O)O2)O1 (stereo not given in full)	0.95
CCCCCC[C@@H](CCC[C@H](OC(C)=O)[C@H]1CC[C@H]([C@H]2CC[C@H]([C@@H](CCCCCCCCCCCCC3=C[C@H](C)OC3=O)OC(C)=O)O2)O1)OC(C)=O	5
CCCCCCCCCCC(=O)[C@H]1CC[C@@H]([C@@H]2CC[C@H]([C@H](O)CCCCCCCCCCC(=O)CC3=C[C@H](C)OC3=O)O2)O1	0.34

* * *

target: Mitochondrial complex I; NADH oxidoreductase (Bos taurus) (UniProt P25708+P52505); test: Relative potency of inhibition of NADH oxidase (IC50); 4-dehydroxy-4-hydroxylimonorolliniastatin-1 as standard; format: protein-complex assay
EXPERIMENTAL_READOUT: Relative potency

COMPOUND	VALUE
CCCCCC(CCCC[C@H](OC(C)=O)[C@H]1CC[C@H]([C@H]2CC[C@H]([C@@H](CCCCCCCCCCCCC3=C[C@H](C)OC3=O)OC(C)=O)O2)O1)OC(C)=O (stereo partly drawn)	8.4
CCCCCCCCCC[C@H](O)[C@H]1CC[C@@H]([C@@H]2CC[C@H]([C@H](O)CCCCCCCCCC[C@@H](O)CC3=C[C@H](C)OC3=O)O2)O1	2.4
CCCCCC[C@@H](CCC[C@H](OS(C)(=O)=O)[C@H]1CC[C@H]([C@H]2CC[C@H]([C@@H](CCCCCCCCCCCCC3=C[C@H](C)OC3=O)OS(C)(=O)=O)O2)O1)OS(C)(=O)=O	56

* * *

target: Mitochondrial complex I; NADH oxidoreductase (Bos taurus) (UniProt P25708+P52505); assay: Relative potency of inhibition of NADH oxidase (IC50); 4-dehydroxy-4-hydroxylimonorolliniastatin-1 as standard; assay type: protein-complex assay
EXPERIMENTAL_READOUT: Relative potency

COMPOUND	EXPERIMENTAL_READOUT	VALUE
CCCCCC(CCCC[C@H](OS(C)(=O)=O)[C@H]1CC[C@H]([C@H]2CC[C@H]([C@@H](CCCCCCCCCCCCC3=C[C@H](C)OC3=O)OS(C)(=O)=O)O2)O1)OS(C)(=O)=O (stereo partly drawn)	Relative potency	12
CCCCCC/C(CCC[C@H](O)[C@H]1CC[C@H]([C@H]2CC[C@H]([C@H](O)CCCCCCCCCCCCC3=C[C@H](C)OC3=O)O2)O1)=N\O	Relative potency	3
CCCCCCCCCC[C@H](O)[C@H]1CC[C@@H]([C@@H]2CC[C@H]([C@H](O)CCCCCCCCCCC(=O)CC3=C[C@H](C)OC3=O)O2)O1	Relative potency	1.7

* * *

assay: Ratio of IC50 of DB to that of NADH oxidase

MOL	Ratio
CCCCCC[C@H](O)CCC[C@H](O)[C@H]1CC[C@H]([C@H]2CC[C@H]([C@H](O)CCCCCCCCCCCCC3=C[C@H](C)OC3=O)O2)O1	1.3
CCCCCC[C@@H](CCC[C@H](OS(C)(=O)=O)[C@H]1CC[C@H]([C@H]2CC[C@H]([C@@H](CCCCCCCCCCCCC3=C[C@H](C)OC3=O)OS(C)(=O)=O)O2)O1)OS(C)(=O)=O	144
CCCCCCCCCC[C@H](O)[C@H]1CC[C@H]([C@H]2CC[C@H]([C@H](O)CCCCCCCCCCCCC3=C[C@H](C)OC3=O)O2)O1	1.4
CCCCCCCCCC[C@H](O)[C@H]1CC[C@@H]([C@@H]2CC[C@H]([C@H](O)CCCCCCCCCCC(=O)CC3=C[C@H](C)OC3=O)O2)O1	1.1
CCCCCCCCCC[C@H](OC(C)=O)[C@H]1CC[C@@H]([C@@H]2CC[C@H]([C@@H](CCCCCCCCCC[C@H](CC3=C[C@H](C)OC3=O)OC(C)=O)OC(C)=O)O2)O1	1300

* * *

biological target: Mitochondrial complex I; NADH oxidoreductase (Bos taurus) (UniProt P25708+P52505); experiment: Relative potency of inhibition of NADH oxidase (IC50); 4-dehydroxy-4-hydroxylimonorolliniastatin-1 as standard; type: protein-complex assay
List of Relative potency values.

COMPOUND	Relative potency
CCCCCCCCCC[C@H](O)[C@H]1CC[C@@H]([C@@H]2CC[C@H]([C@H](O)CCCCCCCC[C@@H](O)CC3=C[C@H](C)OC3=O)O2)O1	1.3
CCCCCCC(=O)CCC[C@H](O)[C@H]1CC[C@H]([C@H]2CC[C@H]([C@H](O)CCCCCCCCCCCCC3=C[C@H](C)OC3=O)O2)O1	2.6
CCCCCCCCCC[C@@H](O)[C@@H]1CC[C@@H]([C@@H]2CC[C@@H]([C@H](O)CCCCCCCCCC(O)CC3=CC(C)OC3=O)O2)O1 (stereo partly specified) [BULLATACIN]	2
CCCCCCCCCC[C@H](O)[C@H]1CC[C@H]([C@H]2CC[C@H]([C@H](O)CCCCCCCCCCCCC3=C[C@H](C)OC3=O)O2)O1 [BULLANIN]	1.3
CCCCCCCCCC/C(=N\O)[C@H]1CC[C@@H]([C@@H]2CC[C@H]([C@H](O)CCCCCCCCCC/C(CC3=C[C@H](C)OC3=O)=N\O)O2)O1	1.4
CCCCCC[C@@H](CCC[C@H](OC(C)=O)[C@H]1CC[C@H]([C@H]2CC[C@H]([C@@H](CCCCCCCCCCCCC3=C[C@H](C)OC3=O)OC(C)=O)O2)O1)OC(C)=O	20
CCCCCCCCCC[C@H](O)[C@H]1CC[C@H]([C@H]2CC[C@H]([C@H](O)CCCCC(O)CCCCCCCC3=C[C@H](C)OC3=O)O2)O1 (stereo partly specified)	3.8
CCCCCCCCCCC(=O)[C@H]1CC[C@H]([C@H]2CC[C@H](C(=O)CCCCC(=O)CCCCCCCC3=C[C@H](C)OC3=O)O2)O1	6.6
CCCCCCCCCC[C@H](O)[C@H]1CC[C@H]([C@H]2CC[C@H]([C@H](O)CCCCC(=O)CCCCCCCC3=C[C@H](C)OC3=O)O2)O1 [GUANACONE]	6.1
CCCCCCCCCCC(=O)[C@H]1CC[C@@H]([C@@H]2CC[C@H]([C@H](O)CCCCCCCCCCC(=O)CC3=C[C@H](C)OC3=O)O2)O1	1.4
CCCCCCCCCC[C@H](O)[C@H]1CC[C@H]([C@H]2CC[C@H]([C@H](O)CCCC/C(CCCCCCCC3=C[C@H](C)OC3=O)=N\O)O2)O1	1.4
CCCCCCCCCC[C@H](OC(C)=O)[C@H]1CC[C@@H]([C@@H]2CC[C@H]([C@@H](CCCCCCCCCC[C@H](CC3=C[C@H](C)OC3=O)OC(C)=O)OC(C)=O)O2)O1	5.8
CCCCC[C@H](O)CCCC[C@H](O)[C@H]1CC[C@H]([C@H]2CC[C@H]([C@H](O)CCCCCCCCCCCCC3=C[C@H](C)OC3=O)O2)O1 [MOTRILIN]	1.6
CCCCCC[C@H](O)CCC[C@H](O)[C@H]1CC[C@H]([C@H]2CC[C@H]([C@H](O)CCCCCCCCCCCCC3=C[C@H](C)OC3=O)O2)O1 [SQUAMOCIN]	2.4
CCCCCC[C@H](CCC[C@@H](N=[N+]=[N-])[C@H]1CC[C@H]([C@H]2CC[C@H]([C@H](CCCCCCCCCCCCC3=C[C@H](C)OC3=O)N=[N+]=[N-])O2)O1)N=[N+]=[N-]	72
CCCCCCCCCC[C@H](O)[C@H]1CC[C@@H]([C@@H]2CC[C@H]([C@H](O)CCCCCCCCCC/C(CC3=C[C@H](C)OC3=O)=N\O)O2)O1	1

* * *

List of Ratio values.
assay: Ratio of IC50 of DB to that of NADH oxidase
EXPERIMENTAL_READOUT: Ratio

MOLECULE	VALUE
CCCCCCCCCC[C@H](O)[C@H]1CC[C@@H]([C@@H]2CC[C@H]([C@H](O)CCCCCCCC[C@@H](O)CC3=C[C@H](C)OC3=O)O2)O1	2.5
CCCCCCCCCC/C(=N\O)[C@H]1CC[C@@H]([C@@H]2CC[C@H]([C@H](O)CCCCCCCCCC/C(CC3=C[C@H](C)OC3=O)=N\O)O2)O1	1.1
CCCCCC[C@@H](CCC[C@H](OC(C)=O)[C@H]1CC[C@H]([C@H]2CC[C@H]([C@@H](CCCCCCCCCCCCC3=C[C@H](C)OC3=O)OC(C)=O)O2)O1)OC(C)=O	587
CCCCCCCCCC[C@@H](O)[C@@H]1CC[C@@H]([C@@H]2CC[C@@H]([C@H](O)CCCCCCCCCC(O)CC3=CC(C)OC3=O)O2)O1 (some centres not stated)	1.2
CCCCCCCCCC[C@H](O)[C@H]1CC[C@H]([C@H]2CC[C@H]([C@H](O)CCCCC(=O)CCCCCCCC3=C[C@H](C)OC3=O)O2)O1	1.4
CCCCCC[C@H](CCC[C@@H](N=[N+]=[N-])[C@H]1CC[C@H]([C@H]2CC[C@H]([C@H](CCCCCCCCCCCCC3=C[C@H](C)OC3=O)N=[N+]=[N-])O2)O1)N=[N+]=[N-]	17
CCCCCC(CCCC[C@H](OS(C)(=O)=O)[C@H]1CC[C@H]([C@H]2CC[C@H]([C@@H](CCCCCCCCCCCCC3=C[C@H](C)OC3=O)OS(C)(=O)=O)O2)O1)OS(C)(=O)=O (some centres not stated)	22
